# Test system: HCT-116 colon
# RUN DESCRIPTION: NCI-60 one-dose screen, 48 h (100 = growth as untreated, 0 = no growth, -100 = all killed)
# CONDITIONS USED: 10 µM
About 83,000 compounds went through this panel and 20% of them were active in at least one assay; those are over-represented in the sample as a whole.
MEASURED PROPERTY: growth (%)
Give bare numbers, in %.

In the examples that follow, each entry is paired with its recorded growth.
SMILES STR	DISPLAY UNIT	QUANTITATIVE READOUT
Cc1c2cnccc2c(C)c2c1oc1ccccc12	%	45
CC[C@H]1OC(=O)[C@H](C)[C@@H](O[C@H]2C[C@@](C)(OC)[C@@H](O)[C@H](C)O2)[C@H](C)[C@@H](O[C@@H]2O[C@H](C)C[C@H](N(C)C)[C@H]2O)[C@](C)(OC)C/C(C)=C2/O[C@@]1(C)C=C2C	%	4.59
Cc1ccc(-n2nnnc2N)c(C)c1	%	98.7
Cc1cc(Cl)ccc1Nc1nc(C(F)(F)F)ccc1C(=O)N/N=C/c1c(Cl)cccc1Cl	%	1.5
O=C(CCCCC(=O)Oc1c(Cl)cc(Cl)cc1[N+](=O)[O-])Oc1c(Cl)cc(Cl)cc1[N+](=O)[O-]	%	101
O=C1/C(=C/c2ccc3c(c2)OCO3)SC(=S)N1C1c2ccccc2Oc2ccccc21	%	92.9
O=C(CN1CCN(C(=O)c2ccccc2)CC1)Nc1ccccc1SCc1ccccc1	%	85.5
c1cncc(-c2csc(-c3c[nH]c4ccccc34)n2)c1	%	82.6

Reported growth for "O=C(O)Cc1ccc(O)c(O)c1" was 105

---

# System: COLO 205 colon
# RUN DESCRIPTION: NCI-60 one-dose screen, 48 h
# CONDITIONS USED: 10 µM
This is part of a sample that, as a whole, favours compounds with a hit. Of some 83,000 tested, about 20% had one in any assay. Active and inactive are the calls of the source. How the source made its calls: active means growth percent below 10; inactive means the rest.
Pick one and only one: 1 (active), 0 (inactive)

Observe how each entry below is paired with its result.
COMPOUND	CLASS ASSIGNMENT
NS(=O)(=O)Oc1ccc2c(ccn2C(=O)C23CC4CC(CC(C4)C2)C3)c1	0
CNC(=O)c1cn2c3c(c(N4CCN(C)CC4)c(F)cc3c1=O)OC[C@@H]2C	0
C=CCSC(CC)(CC)C(=O)NC	0
COc1cc(C2CC(c3cc(Cl)c(C)cc3O)=NN2c2ccc(S(N)(=O)=O)cc2)cc(OC)c1OC (centres undefined)	1
CS(=O)(=O)c1nccc(-c2c(-c3cccc(OCCN4CCOCC4)c3)nc3sccn23)n1	0

Q: What call does the record list for CCOC(=O)/C(=C(\C)N)C1CC(=O)NC1=O (centres undefined) ?
Result: 0

Q: What call does the record list for "O=C(N/N=C/c1ccc(Cl)cc1)c1ccccc1Nc1cccc(C(F)(F)F)c1" ?
Result: 0

Q: What call does the record list for "CCOC(=O)c1cc(C(=O)c2cc(OC)c(OC)c(OC)c2)n2ccc(-c3cc[n+](CC(=O)c4cc(OC)c(OC)c(OC)c4)cc3)cc12" ?
Result: 0

Q: What call does the record list for "CNC(=O)c1cc(Oc2ccc3c(c2)sc2nc(-c4ccc(NC(=O)Nc5ccc(Cl)c(C(F)(F)F)c5)cc4)cn23)ccn1" ?
Result: 0

---

# Tested on: OVCAR-5 ovarian
# RUN DESCRIPTION: NCI-60 one-dose screen, 48 h (100 = growth as untreated, 0 = no growth, -100 = all killed)
# CONDITIONS USED: 10 µM
About 83,000 compounds went through this panel and 20% of them were active in at least one assay; those are over-represented in the sample as a whole.
Record form. Attribute: growth. Fill in for each entry.
Answers are plain numbers, in %.

In the examples that follow, each entry is paired with its recorded growth.
MOLECULE	growth / %
NC1=NC(c2ccc(Cl)cc2)C2=C(N1)/C(=C/c1ccc(Cl)cc1)CCC2 (stereo not given)	112
N#CC1=CC2CN(Cc3ccccc3)C1C1C(=O)N(c3ccccc3)C(=O)C21 (stereo not given)	101
COc1cc(-c2nn(-c3cccc(NC(=O)CN4CCOCC4)c3)cc2-c2cccnc2)ccc1Cl	108

I would be grateful if you could provide growth for each of the following entries.
1. C1CN(CC2CCC(CN3CCOCC3)O2)CCO1 (stereo not given)
2. CCOC(=O)c1cocc1C(=O)O
3. COc1ccc2c(c1)CC=C1[C@@H]2CC[C@]2(C)C(=O)/C(=N/O)C[C@@H]12
4. S=C(SSC(=S)N(c1ccccc1)c1ccccc1)N(c1ccccc1)c1ccccc1
5. CC(C)(O)CCl

Result:
[109, 105, 86.1, 111, 108]

I would be grateful if you could provide growth for each of the following entries.
1. CC(C)(C)OC(=O)CN1CCc2c(sc3ncnc(N/N=C/c4cccc5ccccc45)c23)C1
2. O=C(CN1CCN(C(=O)c2ccccc2)CC1)Nc1ccccc1SCc1ccccc1
3. COc1cccc(C2C(C#N)=C(N)Oc3cc(N)ccc32)c1 (stereo not given)
4. CN1CCN(c2cc3c(cc2F)c(=O)c(C(=O)O)cn3-c2ccc(F)cc2)CC1

Result:
[31.1, 96.4, 40.6, 106]

I would be grateful if you could provide growth for each of the following entries.
1. CSc1ccc(-c2cc(-c3ccc(NC(=O)CCCN4CCCC4)cc3)nc(-c3ccc(NC(=O)CCCN4CCCC4)cc3)c2)cc1
2. O=C(CCCNC(=O)c1nc(-c2ccccc2)n(-c2ccccc2)n1)NO
3. c1ccc(CCCCc2ccc3ccccc3n2)cc1
4. O=C1/C=C/[C@@H](O)[C@@H]2C[C@@H](O)C[C@H]2/C=C/CCC[C@H](CCc2ccc(NC(=S)Nc3ccc4c(c3)C(=O)OC43c4ccc(O)cc4Oc4cc(O)ccc43)cc2)O1

Result:
[72.3, 118, 97.9, 17.9]

I would be grateful if you could provide growth for each of the following entries.
1. C=C1CCC2(C#N)[C@H]3[C@H](CC[C@@H]2C)[C@@H](C)C[C@@H](CC(C)(C)NC(=O)CN2CCC2=O)[C@H]13 (stereo not given in full)
2. CCOC(=O)c1cc(C(=O)c2cc(OC)cc(OC)c2)n2ncc3ccccc3c12
3. COc1cc2cc(Oc3ccc(NC(=O)c4ccc(Cl)c(C(F)(F)F)c4)cc3)c(C)nc2cc1OC

Result:
1. 63.5
2. 55.2
3. 51.3

Reported growth for "CC(C)Cc1ccc([C@H](C)C(=O)O)cc1" was 107

---

# Tested on: T-47D breast
# RUN DESCRIPTION: NCI-60 one-dose screen, 48 h
# CONDITIONS USED: 10 µM
About 83,000 compounds went through this panel and 20% of them were active in at least one assay; those are over-represented in the sample as a whole. Active and inactive are the calls of the source. Rule for the calls: active = growth percent below 10; inactive = the rest.
Pick one and only one: active, inactive

Observe how each entry below is paired with its result.
COMPOUND	CLASS ASSIGNMENT
OC[C@H]1OC([S-])[C@H](O)[C@@H](O)[C@@H]1O.[Au+] (some centres not stated)	inactive
Cc1cn(-c2cccc(NC(=O)c3ccc(C)c(Nc4nccc(-c5cccnc5)n4)c3)c2)cn1	inactive
CCN(CC)CCOC(=O)c1cc(OCc2ccccc2)c(OCc2ccccc2)c(OCc2ccccc2)c1	inactive

Q: What call does the record list for "CS(=O)(=O)c1nccc(-c2c(-c3cccc(OCc4ccc(F)cc4)c3)nc3sccn23)n1" ?
Result: inactive

Q: What call does the record list for "CN(C)CCCSc1ccccc1NC1=C(Cl)C(=O)C(Nc2ccccc2SCCCN(C)C)=C(Cl)C1=O" ?
Result: active

Q: What call does the record list for "CC(C)(C)OC(=O)CC(S(=O)(=O)c1ccccc1)S(=O)(=O)c1ccccc1" ?
Result: inactive

---

# Tested on: SNB-19 CNS
# RUN DESCRIPTION: NCI-60 one-dose screen, 48 h (100 = growth as untreated, 0 = no growth, -100 = all killed)
# CONDITIONS USED: 10 µM
The panel holds about 83,000 compounds, 20% with a hit somewhere; the sample as a whole holds those more often.
Classification field: true = growth at or over 80%; false = growth under 80%.

Observe how each entry below is paired with its result.
COMPOUND	CLASS ASSIGNMENT
CC(=O)N[C@H](C(=O)N[C@@H](CCCNC(=N)N)C(=O)N[C@@H](CCCCN)C(=O)N[C@@H](CCCNC(=N)N)C(=O)NC(C(=O)N[C@@H](CC(C)C)C(=O)N[C@@H](CCCNC(=N)N)C(=O)N[C@@]1(C)CCC/C=C\CCC[C@@](C)(C(=O)N[C@@H](CCCNC(=N)N)C(=O)N[C@@H](CCC(=O)O)C(=O)N[C@@H](CC(C)C)C(=O)N[C@H](C(=O)N[C@@H](CCC(=O)O)C(N)=O)C(C)C)NC(=O)[C@H](CCC(N)=O)NC(=O)[C@H](CC(C)C)NC(=O)[C@H](CC(C)C)NC1=O)[C@@H](C)O)C(C)C (stereo partly specified)	false
COc1ccc(-c2nnc(SCC(=O)Nc3ccc(C(=O)/C=C/c4ccccc4)cc3)n2-c2ccccc2)cc1OC	true
O=C(CCc1nnc2sc(-c3cc(O)c(O)c(O)c3)nn12)c1nc2ccccc2[nH]1	true
COc1cc(C2CC(c3ccc4c(c3)OCO4)=NN2c2ccccc2)cc(OC)c1OC (stereo unspecified)	true
CC(=O)OC/C=C(/C)C[P+](c1ccccc1)(c1ccccc1)c1ccccc1	false

Q: Given Cc1ccccc1N1C(=O)c2cc(S(N)(=O)=O)c(Cl)cc2NC1C (stereo unspecified) , state whether its growth is at least 80%.
Result: true

Q: Given "O=C(CCCNC(=O)c1nc(-c2ccccc2)n(-c2ccccc2)n1)NO" , state whether its growth is at least 80%.
Result: true

Data credit: PubChem BioAssay (NCI)
